Target: Cytochrome P450 11B2, mitochondrial (Rattus norvegicus, UniProt P30099)
Endpoint: pIC50
Scale for pIC50: -log10 of concentration given in mol/L; no unit attached.

For the compound CCC1(c2ccc(N)cc2)CCC(=O)NC1=O (stereo unspecified) [AMINOGLUTETHIMIDE] , what pIC50 is on record?
3.96

* * *

Sequence of the target: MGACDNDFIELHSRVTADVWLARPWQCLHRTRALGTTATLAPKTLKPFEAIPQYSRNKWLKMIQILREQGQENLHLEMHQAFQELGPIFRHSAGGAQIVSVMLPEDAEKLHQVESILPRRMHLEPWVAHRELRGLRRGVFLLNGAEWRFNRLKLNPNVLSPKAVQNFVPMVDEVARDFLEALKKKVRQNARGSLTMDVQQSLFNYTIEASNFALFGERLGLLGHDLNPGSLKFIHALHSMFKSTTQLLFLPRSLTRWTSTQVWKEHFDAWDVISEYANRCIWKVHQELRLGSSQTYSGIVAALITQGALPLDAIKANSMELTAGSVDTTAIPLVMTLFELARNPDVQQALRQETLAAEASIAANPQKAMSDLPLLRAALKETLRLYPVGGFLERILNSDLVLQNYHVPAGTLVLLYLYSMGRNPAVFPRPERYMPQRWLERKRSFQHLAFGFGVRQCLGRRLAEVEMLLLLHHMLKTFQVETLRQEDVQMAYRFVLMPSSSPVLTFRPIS
pIC50: −log10 of the molar value.
Endpoint: pIC50

Need pIC50 of Nc1ccc(C23CC2C(=O)N(CC2CCCCC2)C3=O)cc1 (stereo unspecified) , thanks.
< 3.48
